system: Calu-3; test: drug sensitivity score (DSS) for viability; higher = more toxic; extreme values may be limits of the assay; settings: 72 h
observation_type: drug sensitivity score

INSERT INTO results (molecule, quantitative_result) VALUES
  ('CCN(CC)CC1CCCCN1CC(=O)N1c2ccccc2C(=O)Nc2cccnc21 (stereo unspecified) [otenzepad]', 0),
  ('OC[C@@H](O)[C@H]1O[C@@H]2O[C@H](C(Cl)(Cl)Cl)O[C@@H]2[C@H]1O [chloralose]', 0),
  ('NS(=O)(=O)Cc1noc2ccccc12 [zonisamide]', 0),
  ('NS(=O)(=O)c1cccc2c1c([N+](=O)[O-])cc1nc(O)c(O)nc12 [NBQX]', 0),
  ('CN(C)c1ccc2c(c1)Sc1cc(N(C)C)ccc1N2 [leucomethylene-blue]', 4.4),
  ('Clc1ccc(C(OCCN2CCCCC2)c2ccccc2)cc1 (stereo unspecified) [cloperastine]', 0),
  ('NC[C@H]1O[C@H](O[C@H]2[C@H](O)[C@@H](O[C@H]3O[C@H](CO)[C@@H](O)[C@H](N)[C@H]3O)[C@H](N)C[C@@H]2N)[C@H](N)[C@@H](O)[C@@H]1O [bekanamycin]', 0),
  ('OC[C@H]1O[C@@H](Oc2cc3c(O)cc(O)cc3[o+]c2-c2ccc(O)c(O)c2)[C@H](O)[C@@H](O)[C@@H]1O [kuromanin]', 0),
  ('CCC/N=C1\S/C(=C\c2ccc(OC[C@H](O)CO)c(Cl)c2)C(=O)N1c1ccccc1C [ponesimod]', 0),
  ('C[N+]1([O-])[C@@H]2C[C@@H](OC(=O)[C@H](CO)c3ccccc3)C[C@H]1[C@@H]1O[C@@H]12 (stereo partly specified) [scopolamine-N-oxide]', 0),
  ('Nc1ncnc2[nH]nc(Nc3ccc(F)cc3)c12', 1.2);
